test system: HL-60; test: NCI tumour cell line growth inhibition, 48 h
Calls of active or inactive are those of the source. No stated cut-off is given here; in the data, active = GI50 up to about 1.1 µM and inactive = higher.
endpoint name: GI50

Asked: // lookup GI50 for CC(C)=CC1C(C(=O)O)C1(C)C (stereo not given) [CHRYSANTHEMIC ACID]
Given back: > 750 µM (inactive)

Asked: And CN(C)CC1CC/C(=C\c2ccc3c(c2)OCO3)C1=O (stereo not given) ?
Given back: 2.56 µM (inactive)

Asked: And `O=C1C=CC(=O)C(CNc2ccc(C(=O)OCc3ccccc3)cc2)=C1` ?
Given back: 1.08 µM (active)

Asked: And `CN(NC(=O)c1cccs1)C1=NCCCCN1` ?
Given back: > 100 µM (inactive)

Asked: And Cn1cc2ccccc2c1-c1nc(F)nc(OCC(=O)[C@H]2CCC3[C@@H]4CCC5=CC(=O)CC[C@]5(C)C4[C@@H](O)C[C@@]32C)n1 (stereo not given in full) ?
Given back: 6.27 µM (inactive)

---

tested on: ACHN; assay: NCI tumour cell line growth inhibition, 48 h
Calls of active or inactive are those of the source. Cut-off read from the data, not from the text of the source: active = GI50 up to about 1.1 µM and inactive = higher.
Hi there, use one of these labels in your reply, thanks! T for active, F for inactive

Asked: What did this assay record as the result for `CCOP(=O)(OCC)C(F)(F)CC1CCCCC1` ?
Given back: F

Asked: And CC(=O)OCC1OC(N2C(C)=C(C(C)=O)C(c3ccco3)C(C#N)=C2S)C(OC(C)=O)C(OC(C)=O)C1OC(C)=O (centres undefined) ?
Given back: F

Asked: And `[N-]=[N+]=Nc1cc(=O)n(-c2ccccc2)c2ccccc12` ?
Given back: F

Asked: And `O=C1NCCCNCCCNCCCNC(=O)c2cccc1n2` ?
Given back: F

Asked: And O=C1c2ccccc2C(=O)c2c(NCC3CO3)ccc(NCC3CO3)c21 (centres undefined) ?
Given back: T

Asked: And `Cc1ccc(/N=N/C(=N/c2ccccc2)c2ccc(N(CCC#N)CCC#N)cc2)cc1` ?
Given back: F

Asked: And `Cc1ccc(S(=O)(=O)N/N=C/C(Br)=C(/Br)C(=O)O)cc1` ?
Given back: F

Asked: And C[C@@H](CC(=O)O)OC1OC(COC(=O)C(C)(C)C)C(OC(=O)C(C)(C)C)C(OC(=O)C(C)(C)C)C1OC(=O)C(C)(C)C (some centres undefined) ?
Given back: F

Asked: And `COc1cc(/C=C2/C[C@H]3[C@@H]4CC=C5C[C@@H](OC(C)=O)CC[C@]5(C)[C@H]4CC[C@]3(C)NC2=O)cc(OC)c1OC` ?
Given back: F

---

tested on: Malme-3M; test: NCI tumour cell line growth inhibition, 48 h
Counter-ions that a name gives are not always drawn. The source made the active and inactive calls. Cut-off read from the data, not from the text of the source: active = GI50 up to about 1.1 µM and inactive = higher.
Hi there, use one of these labels in your reply, thanks! active, inactive

Asked: What did this assay record as the result for `C#CCN1CCN(C(=S)N/N=C(\C)c2ccccn2)CC1` ?
Given back: active

Asked: And CCOC(=O)C(=O)C(C#N)c1ccc(Cl)cc1 (centres undefined) ?
Given back: inactive

Asked: And COC(=O)c1ccccc1CC1Cc2ccc3c(c2C1=O)CCCC3 (centres undefined) ?
Given back: inactive

Asked: And `Cc1cn(Cc2ccccc2CCl)c(=O)[nH]c1=O` ?
Given back: inactive

Asked: And `NCCCN1CCN(c2ccccc2)CC1` ?
Given back: inactive

Asked: And COC(=O)C1=C(C(=O)OC)C2(OC(C)=O)c3ccccc3-c3ccccc3C12 (centres undefined) ?
Given back: inactive

Asked: And CCCCCCCCCCCCN(CC(O)C(O)C(OC1OC(CO)C(O)C(O)C1O)C(O)CO)C(=O)CCCCCCCCCCC (centres undefined) ?
Given back: inactive

Asked: And `O=C(O)c1ccccc1/N=C/c1ccc(N(CCCl)CCCl)cc1` ?
Given back: inactive

Asked: And Nc1nc2c(c(=O)[nH]1)NC(CO)CN2 (centres undefined) ?
Given back: inactive

Asked: And `CN(NC(=O)/C(=C/C=C/c1ccccc1)NC(=O)c1ccccc1)C1=C(Cl)C(=O)[N+](c2ccccc2)=CC1` ?
Given back: inactive

Asked: And `O=c1oc2ccc(Cl)cc2c2ccccc12` ?
Given back: inactive

Asked: And `Cc1ccc2c(c1)nc1n2C(N)=Nc2ccccc2S1` ?
Given back: inactive

Asked: And `CCOC(=O)/C(C(=O)Nc1ccc(F)cc1)=C(/N)N1CCOCC1` ?
Given back: inactive

Asked: And Cc1ccc2oc(=O)c3c(O)c4cccc(OC5OC(C)C6O[C@@H](c7ccccc7)OC6C5OC5OC(C)C(O)C(O)C5O)c4c4oc(=O)c1c2c34 (some centres undefined) ?
Given back: active

Asked: And OC(CNc1ccccn1)c1ccccc1 (centres undefined) [PHENYRAMIDOL HYDROCHLORIDE] ?
Given back: inactive

Asked: And `CCOC(=O)Cn1c(=O)ccn(COCCO)c1=O` ?
Given back: inactive

Asked: And `CC(C)NC(=O)OCc1c(COC(=O)NC(C)C)n(C)c2c1ccc1ccsc12` ?
Given back: inactive

Asked: And O=C1OCC2C1C1c3ccccc3C(O)c3ccccc3C21 (centres undefined) ?
Given back: inactive

Asked: And `Nc1ccc(-c2nc3cc(F)ccc3s2)cc1I` ?
Given back: inactive

Asked: And `CCOc1ccc2nc(NC(=O)c3c/c(=N\NC(=O)C[N+](C)(C)C)c4ccc(O)cc4o3)sc2c1` ?
Given back: inactive

Asked: And `O=c1cc(-c2ccccc2)oc2c1ccc1nc3ccccc3c(O)c12` ?
Given back: inactive

Asked: And `CCOc1cc2c(cc1OC)c[n+](C)c1c3cc(OC)c(OC)cc3ccc21` ?
Given back: inactive

Asked: And `CCC1=NC(N/N=C/c2ccccc2O)=N/C1=C\c1ccccc1O` ?
Given back: inactive

Asked: And `O=c1[nH]nc(-c2cccc(Br)c2)[nH]1` ?
Given back: inactive

Asked: And `CCCCCc1cc2c(cc1O)CC[C@@H]1[C@@H]2CC[C@]2(C)[C@@H](O)CC[C@@H]12` ?
Given back: inactive

Asked: And COC(=O)[C@]1(C)CCC[C@]2(C)C3CC4OOC3(C=C4C(C)(C)O)CCC21 (some centres undefined) ?
Given back: inactive

Asked: And `O=[N+]([O-])c1ccc(Cc2nc3cc4ccccc4cc3[nH]2)cc1C(F)(F)F` ?
Given back: inactive

Asked: And `O=C(O)c1ccccc1Sc1ccccc1[N+](=O)[O-]` ?
Given back: inactive

Asked: And OCC(O)CNc1ncnc2ccccc12 (centres undefined) ?
Given back: inactive

Asked: And `O=C1C(Cl)=C(NCCc2ccc(O)cc2)C(=O)c2c(O)ccc(O)c21` ?
Given back: inactive

Asked: And `CC1=C(C)C(=O)C(C2=C(C3=CC(=O)C(C)=C(C)C3=O)C(=O)c3ccccc3C2=O)=CC1=O` ?
Given back: active

Asked: And `CCN1C(=O)/C(=C/Nc2ccccc2)S/C1=N/Nc1nc(-c2ccc(O)c(O)c2)cs1` ?
Given back: inactive

Asked: And CO/N=C1\CC(NC(=O)C(F)(F)F)c2ccsc21 (centres undefined) ?
Given back: inactive

Asked: And O=C1CCC(CCc2nc3ccccc3[nH]2)(c2ccccc2)C(=O)N1 (centres undefined) ?
Given back: inactive

Asked: And `CC(C)CCC1(CCN)C(=O)NC(=O)NC1=O` ?
Given back: inactive

Asked: And `COc1ccc(Nc2nc3c(N)cc(C(F)(F)F)cc3nc2-c2ccccc2)cc1OC` ?
Given back: inactive

Asked: And `COC(=O)CC[N+]1([O-])CC1` ?
Given back: inactive

Asked: And `CCOC(=O)CC(=O)Nc1cccc2nc[nH]c12` ?
Given back: inactive

Asked: And `CN(C)c1n/c(=N/Cc2ccccc2)ss1` ?
Given back: inactive

Asked: And `COc1cc(C(=O)Nc2c3ccccc3nc3ccccc23)cc(OC)c1OC` ?
Given back: inactive

Asked: And `Clc1ccccc1NN(Cc1ccccn1)c1ccccc1Cl` ?
Given back: inactive

Asked: And `Nc1nnc(NC(=O)C2=NS(=O)(=O)c3cc(S(N)(=O)=O)c(Cl)cc3N2)[nH]1` ?
Given back: inactive

Asked: And `O=C(Nc1ccc(Cl)cc1)Oc1ccc(C(=S)Nc2ccc(Br)cc2)cc1` ?
Given back: inactive

Asked: And N#Cc1ccc(C2ON=C(c3ccccc3)N2C23CC4CC(CC(C4)C2)C3)cc1 (centres undefined) ?
Given back: inactive

---

Provide the recorded GI50 for the entries that follow.
tested on: SW-620; test: NCI tumour cell line growth inhibition, 48 h
Calls of active or inactive are those of the source. Rule as the data show it: active = GI50 up to about 1.1 µM and inactive = higher.

Asked: // lookup GI50 for `COc1cc(/C=C2/C[C@H]3[C@@H]4CC=C5C[C@@H](OC(C)=O)CC[C@]5(C)[C@H]4CC[C@]3(C)NC2=O)cc(OC)c1OC`
Given back: 54 µM (inactive)

Asked: And `O=C1C(c2c(O)[nH]c3ccc(I)cc23)=Nc2ccccc21` ?
Given back: 13.2 µM (inactive)

Asked: And `O=C(CCc1cc(-c2ccc(F)cc2)n[nH]1)N(Cc1ccccc1)Cc1ccccc1` ?
Given back: > 100 µM (inactive)

Asked: And COc1ccc(C[N+]23C(CC[C@H]2c2ccccc2)CC[C@H]3c2ccccc2)cc1 (some centres undefined) ?
Given back: 28.2 µM (inactive)
